# assay-system: human Glucose-dependent Insulinotropic Polypeptide Receptor (hGIPR) (Homo sapiens)
# Sequence (P48546 22-466): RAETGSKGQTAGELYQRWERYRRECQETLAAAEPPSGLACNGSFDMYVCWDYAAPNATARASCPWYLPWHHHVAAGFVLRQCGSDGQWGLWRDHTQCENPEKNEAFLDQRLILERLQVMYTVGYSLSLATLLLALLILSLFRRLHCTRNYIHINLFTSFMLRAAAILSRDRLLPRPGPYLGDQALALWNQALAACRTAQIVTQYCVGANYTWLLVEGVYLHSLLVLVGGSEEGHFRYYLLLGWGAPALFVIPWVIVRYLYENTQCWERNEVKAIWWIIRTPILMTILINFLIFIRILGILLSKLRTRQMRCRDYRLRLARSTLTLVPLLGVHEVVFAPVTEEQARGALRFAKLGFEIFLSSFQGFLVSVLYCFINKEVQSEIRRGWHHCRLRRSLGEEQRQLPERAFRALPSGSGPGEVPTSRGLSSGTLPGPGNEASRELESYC
# assay-comment: Functional in vitro GIPR antagonist potency assay (cAMP HTRF, CHO-K1 cells stably expressing hGIPR, hGIP stimulation at about EC80)
# particulars: geometric mean, hGIP at estimated EC80, examples marked ^2: overall geometric mean of multiple forms (including salts) tested
pIC50: −log10 of the molar value.
reported-endpoint: pIC50

Some solved cases for reference:
- molecule: "CC(C)c1ccc(CNC(=O)N2CCC[C@@H]2C(=O)Nc2ccc(-c3ccc(C(=O)O)cc3)cc2)c(F)c1 [Example 127]"
  pIC50: 7.16
- molecule: "Cc1cc(NC(=O)N2CCC[C@@H]2C(=O)Nc2ccc(-c3ccc(C(=O)O)nc3)cc2)ccc1C1CC1 [Example 174]"
  pIC50: 7.31

I: O=C(O)c1ccc(-c2ccc(NC(=O)[C@H]3CCCN3C(=O)Nc3ccc(CC(F)(F)F)cc3)cc2)cc1 [Example 155]
II: O=C(O)[C@@H]1CCc2nc(NC(=O)[C@H]3CCCN3C(=O)Nc3ccc(C(F)(F)F)cc3)ccc2C1 (single isomer, unassigned) [Example 217]
Of I and II , whose reported pIC50 is the larger number? Answer by stating the label of the chosen item.
I
(I: 7.66, II: 6.85)
